# Assay System: T1, IL-18 receptor (IL-18Rαβ) on cells (UniProt Q13478 19-541; O95256 20-599, limits assumed)
# T1 sequence (looked up) 1: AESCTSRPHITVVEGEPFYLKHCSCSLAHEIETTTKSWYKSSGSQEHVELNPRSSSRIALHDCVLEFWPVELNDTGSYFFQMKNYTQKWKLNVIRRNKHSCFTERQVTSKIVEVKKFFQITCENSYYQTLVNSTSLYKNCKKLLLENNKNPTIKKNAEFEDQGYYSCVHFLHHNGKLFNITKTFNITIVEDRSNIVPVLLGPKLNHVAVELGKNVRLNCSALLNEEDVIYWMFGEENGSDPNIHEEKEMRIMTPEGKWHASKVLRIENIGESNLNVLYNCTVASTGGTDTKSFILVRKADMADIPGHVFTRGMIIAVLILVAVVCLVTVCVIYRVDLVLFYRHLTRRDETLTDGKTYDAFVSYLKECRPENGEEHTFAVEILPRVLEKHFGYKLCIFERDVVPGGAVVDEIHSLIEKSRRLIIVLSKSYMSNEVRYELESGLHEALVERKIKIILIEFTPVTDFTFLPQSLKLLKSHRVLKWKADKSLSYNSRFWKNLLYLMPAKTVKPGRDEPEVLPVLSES
# T1 sequence (looked up) 2: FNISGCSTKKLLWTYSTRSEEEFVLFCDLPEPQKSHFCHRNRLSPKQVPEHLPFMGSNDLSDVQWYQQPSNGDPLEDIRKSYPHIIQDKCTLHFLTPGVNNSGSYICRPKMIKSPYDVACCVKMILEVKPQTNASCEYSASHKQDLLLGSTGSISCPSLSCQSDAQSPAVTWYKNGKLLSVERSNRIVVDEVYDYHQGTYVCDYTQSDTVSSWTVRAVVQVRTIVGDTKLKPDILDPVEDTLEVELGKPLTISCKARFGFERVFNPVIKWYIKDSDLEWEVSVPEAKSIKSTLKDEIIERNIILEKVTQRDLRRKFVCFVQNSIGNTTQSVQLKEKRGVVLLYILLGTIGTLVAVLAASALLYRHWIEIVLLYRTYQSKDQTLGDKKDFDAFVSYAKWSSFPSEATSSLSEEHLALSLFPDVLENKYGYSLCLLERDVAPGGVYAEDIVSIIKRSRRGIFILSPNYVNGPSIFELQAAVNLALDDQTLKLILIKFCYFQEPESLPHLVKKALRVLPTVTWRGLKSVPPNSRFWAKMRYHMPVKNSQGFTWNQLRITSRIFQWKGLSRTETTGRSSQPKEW
# Protocol Summary: cell-based or functional assay
Overview of recorded Fold potency loss vs C086 for various binders
Please state the figure in fold; there is no need to write the unit.

>>> numeric_value("C137 (C086-GGGGSGGGGSGGGG-IL-18Rα D3-His6, non-cleavable control; SEQ ID NO: 78) (ligand) YFGKLKSKLSIIRNLNDQVLFIDQGNRPLFEDMTDSDARDNAPRTIFIISMYADSQPRGMAVAISVKCEKISTLSAENKIISFKEMNPPDNIKDTKSDIIFFQRSVPGHDNKMQFESSSYEGYFLAAEKERDLFKLILKKEDELGDRSIMFTVQNEGGGGSGGGGSGGGGSNIVPVLLGPKLNHVAVELGKNVRLNCSALLNEEDVIYWMFGEENGSDPNIHEEKEMRIMTPEGKWHASKVLRIENIGESNLNVLYNCTVASTGGTDTKSFILVRKADHHHHHH")
49
>>> numeric_value("C187 (Propeptide-PLGLAG-C086; SEQ ID NO: 72) (ligand) MAAEPVEDNCINFVAMKFIDNTLYFIAEDDENLESDPLGLAGYFGKLKSKLSIIRNLNDQVLFIDQGNRPLFEDMTDSDARDNAPRTIFIISMYADSQPRGMAVAISVKCEKISTLSAENKIISFKEMNPPDNIKDTKSDIIFFQRSVPGHDNKMQFESSSYEGYFLAAEKERDLFKLILKKEDELGDRSIMFTVQNED")
29400
>>> numeric_value("C127 (Propeptide-LinkerX-C086; SEQ ID NO: 69) (ligand) MAAEPVEDNCINFVAMKFIDNTLYFIAEDDENLESDSGGPGPAGMKGLPGSYFGKLKSKLSIIRNLNDQVLFIDQGNRPLFEDMTDSDARDNAPRTIFIISMYADSQPRGMAVAISVKCEKISTLSAENKIISFKEMNPPDNIKDTKSDIIFFQRSVPGHDNKMQFESSSYEGYFLAAEKERDLFKLILKKEDELGDRSIMFTVQNED")
7000
>>> numeric_value("C191 (C086-PLGLAG linker-IL-18Rα D3-His6; SEQ ID NO: 76) (ligand) YFGKLKSKLSIIRNLNDQVLFIDQGNRPLFEDMTDSDARDNAPRTIFIISMYADSQPRGMAVAISVKCEKISTLSAENKIISFKEMNPPDNIKDTKSDIIFFQRSVPGHDNKMQFESSSYEGYFLAAEKERDLFKLILKKEDELGDRSIMFTVQNESGGPLGLAGGSNIVPVLLGPKLNHVAVELGKNVRLNCSALLNEEDVIYWMFGEENGSDPNIHEEKEMRIMTPEGKWHASKVLRIENIGESNLNVLYNCTVASTGGTDTKSFILVRKADHHHHHH")
48

### Prompt Dear colleague, I am looking for the recorded Fold potency loss vs C086 of the following binder: C185 (Propeptide-PLG-C086; SEQ ID NO: 70) (ligand) MAAEPVEDNCINFVAMKFIDNTLYFIAEDDENLESDPLGYFGKLKSKLSIIRNLNDQVLFIDQGNRPLFEDMTDSDARDNAPRTIFIISMYADSQPRGMAVAISVKCEKISTLSAENKIISFKEMNPPDNIKDTKSDIIFFQRSVPGHDNKMQFESSSYEGYFLAAEKERDLFKLILKKEDELGDRSIMFTVQNED
### Response 60900

### Prompt // query: C189 (C086-LinkerX-IL-18Rα D3 without glycosylation sites-His6; SEQ ID NO: 75) (ligand) YFGKLKSKLSIIRNLNDQVLFIDQGNRPLFEDMTDSDARDNAPRTIFIISMYADSQPRGMAVAISVKCEKISTLSAENKIISFKEMNPPDNIKDTKSDIIFFQRSVPGHDNKMQFESSSYEGYFLAAEKERDLFKLILKKEDELGDRSIMFTVQNESGGPGPAGMKGLPGSNIVPVLLGPKLNHVAVELGKNVRLDCSALLNEEDVIYWMFGEEDGSDPNIHEEKEMRIMTPEGKWHASKVLRIENIGESNLNVLYDCTVASTGGTDTKSFILVRKADHHHHHH
### Response 10

All figures here come from patent US20240116997A1.
